Assign G′/G″ ratio to each entry below.
Assay: Frequency sweep test (FST), rheometer
Assay type: physicochemical
Settings: hydrogels 15-19 at 1% w/v
Reply: number alone, nothing else.

Indicate the recorded G′/G″ ratio value for this compound: CN(C)CCCNC(=O)[C@H](Cc1ccccc1)NC(=O)c1ccc(F)cc1NC(=O)c1ccc2ccccc2c1 [Compound 15]
20

Retrieve G′/G″ ratio measured for CN(C)CCCNC(=O)[C@H](Cc1ccccc1)NC(=O)c1ccccc1NC(=O)c1ccc2ccccc2c1 [Compound 18] and print it.
16.5

Input CN(C)CCCNC(=O)[C@H](Cc1ccccc1)NC(=O)c1ccc(Br)cc1NC(=O)c1ccc2ccccc2c1 [Compound 17] , output reported G′/G″ ratio.
4.0

Supply recorded G′/G″ ratio for CN(C)CCCNC(=O)[C@H](Cc1ccccc1)NC(=O)c1ccccc1NC(=O)c1ccc2ccccc2c1.Cl [Compound 19] here.
10.1

Supply recorded G′/G″ ratio for CN(C)CCCNC(=O)[C@H](Cc1ccccc1)NC(=O)c1ccc(Cl)cc1NC(=O)c1ccc2ccccc2c1 [Compound 16] here.
10.6
